Hello, the source for this data is ChEMBL document CHEMBL4316596, in case you need it.

# Test system: Escherichia coli
# experiment-notes: Bactericidal activity against Escherichia coli UB1005 incubated for 4 hrs followed by culture spread on agar plates and cultured overnight
# Assay type: functional
# measurement-parameters: UB1005, 4 h, read-out: MBC>99.9
assay-readout: MBC (µM)
State the answer as a number, implicitly in µM.

Worked examples, 6 substances total:
Param readout = MBC; param system = Escherichia coli; param query = H-LKPLLKPLLKPLLKPLLKPLLKPLLKPL-NH2 ; response: value
2

Can you handle H-LKPLLKPLLKPLLKPLLKPLLKPL-NH2 next?
4

And what about the substance H-IKPIIKPIIKPIIKPIIKPIIKPIIKPIIKPI-NH2 ?
4

Another: H-IKPIIKPIIKPIIKPIIKPIIKPIIKPI-NH2
4

Follow-up entry: H-LKPLLKPLLKPLLKPLLKPL-NH2
8

Also need H-LKPLLKPLLKPLLKPLLKPLLKPLLKPLLKPL-NH2 , thanks.
4

Continuing:
Give the reported MBC for H-LRPLLRPLLRPLLRPLLRPLLRPLLRPLLRPL-NH2 (system: Escherichia coli).
4

Likewise for H-IRPIIRPIIRPIIRPIIRPI-NH2 ?
8

* * *

# Tested on: Acinetobacter baumannii
# experiment-notes: Bactericidal activity against Acinetobacter baumannii incubated for 4 hrs followed by culture spread on agar plates and cultured overnight
# Assay type: functional
# measurement-parameters: read-out: MBC>99.9
assay-readout: MBC (µM)
Hi! Could you send only the number? It should be in µM, unit omitted.

Consider the following illustrative entries.
Checklist item: MBC tested on Acinetobacter baumannii, entry H-LRPLLRPLLRPLLRPLLRPLLRPL-NH2 , value?
4

Now consider H-IKPIIKPIIKPIIKPIIKPIIKPIIKPIIKPI-NH2 .
4

Another substance to check: H-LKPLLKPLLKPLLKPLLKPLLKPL-NH2
4

Likewise for H-LRPLLRPLLRPLLRPLLRPLLRPLLRPLLRPL-NH2 ?
1

What would you report for H-VRPVVRPVVRPVVRPVVRPVVRPVVRPV-NH2 ?
4

Further cases:
Notebook: pull reported MBC for Acinetobacter baumannii, entry H-IRPIIRPIIRPIIRPIIRPIIRPI-NH2
8

And what about the substance H-IRPIIRPIIRPIIRPI-NH2 ?
8

Then H-VRPVVRPVVRPVVRPVVRPVVRPV-NH2 ?
4

* * *

# System: Pseudomonas aeruginosa
# experiment-notes: Antimicrobial activity against Pseudomonas aeruginosa CICC 21630 clinical isolates after 24 hrs by NCCLS-protocol based assay
# Format: functional
# measurement-parameters: CICC 21630, 24 h
Listing: MIC95 of selected substances

Below are worked cases with known answers.
Sample H-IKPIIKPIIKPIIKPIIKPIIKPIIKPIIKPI-NH2 — what was its MIC95?
> 64 µM

How about H-IRPIIRPIIRPIIRPIIRPIIRPIIRPI-NH2 ?
32 µM

Subsequent entry: H-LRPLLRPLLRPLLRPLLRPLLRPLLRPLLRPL-NH2
4 µM

// next record H-LRPLLRPLLRPLLRPL-NH2
> 64 µM

Continue with the substance presented below.
MIC95 for H-LKPLLKPLLKPLLKPLLKPL-NH2 ?
32 µM
